Measured PBM binding z-score values are reported for all entries that follow.
test system: PPARa:RXRa (NR concentration 270 nM, RXRa partner concentration 90 nM); assay: PBM binding z-score (relative to random genomic background probes); higher = stronger binding; sequences stand for … in GC…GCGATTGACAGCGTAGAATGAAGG
Lab note: write the figure by itself, no unit.

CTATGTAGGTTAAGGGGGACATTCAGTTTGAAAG: 5.12

Reported PBM binding z-score for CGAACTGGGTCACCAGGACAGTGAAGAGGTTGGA was 4.99

Reported PBM binding z-score for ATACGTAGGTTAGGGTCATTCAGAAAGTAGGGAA was 4.88

Reported PBM binding z-score for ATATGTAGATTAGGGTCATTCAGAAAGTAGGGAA was 4.91

Reported PBM binding z-score for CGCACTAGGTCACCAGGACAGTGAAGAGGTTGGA was 4.91

Reported PBM binding z-score for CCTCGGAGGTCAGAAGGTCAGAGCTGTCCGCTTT was 4.92

This collection of values is drawn from the supplement of paper PMC6555819.
